Origin of the recorded values: PubChem BioAssay AID1259426

Target: HEK293 Galpha15/GCaMP6s without NPYLR7, calcium fluorescence
Experiment: nonspecific activation in parental Galpha15/GCaMP6s cells – cell-based, HEK293 lacking NPYLR7, counter-screen for mosquito NPYLR7 agonist project, dose response (AID 1259426);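 also: potency for a rise in fluorescence over baseline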
Activity calls are given as the source filed them.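 The calls were made as follows: active = EC50 under a set limit in control cells lacking the mosquito receptor, marking a fluorescence artifact; inactive = the rest.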
Response enum: active, inactive

Test call, this molecule: O=[N+]([O-])c1ccc(-n2nc3ccc4nonc4c3n2)cc1
inactive

Test call, this molecule: Cc1ccc(NC2C=CS(=O)(=O)C2)cc1C (stereo unspecified)
inactive

Test call, this molecule: O=C1c2cccc3c(Nc4ccccc4)ccc(c23)C(=O)N1c1ccccc1
active

Test call, this molecule: O=C(O)CN1C(=O)/C(=C/c2cc(Br)c(O)c(Br)c2)SC1=S
active

Test call, this molecule: Cn1c(/C(C#N)=C/c2ccc(N3CCOCC3)o2)nc2ccccc21
inactive

Test call, this molecule: N#CC(C#N)=C1C=C2C=C(N3CCCCCC3)CCC2CC1 (stereo unspecified)
active

====

Target: HEK293 Galpha15/GCaMP6s without NPYLR7, calcium fluorescence
Test: nonspecific activation in parental Galpha15/GCaMP6s cells – cell-based, HEK293 lacking NPYLR7, counter-screen for mosquito NPYLR7 agonist project, dose response (AID 1259426);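 also: potency for a rise in fluorescence over baseline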
Active and inactive are the calls of the source.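 The calls were made as follows: active = EC50 under a set limit in control cells lacking the mosquito receptor, marking a fluorescence artifact; inactive = the rest.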
Response enum: class 1 = active, class 0 = inactive

Test call, this compound: CC1C(=O)c2cccc3c(=O)n(-c4ccccc4)c(O)c(c23)C1=O (configuration not stated)
class 0

Test call, this compound: COc1cccc(-n2c(O)c(C=Nc3cc(OC)ccc3OC)c3ccccc3c2=O)c1
class 0

Test call, this compound: CC(=O)Oc1c(/C=C(\C#N)C(N)=O)[nH]c2ccccc12
class 1

Test call, this compound: O=[N+]([O-])c1ccc(Cl)c2nonc12
class 1

Test call, this compound: CCOC(=O)C1=C(O)/C(=C\c2ccc(N(C)C)cc2)SC1=Nc1ccc(OC)cc1OC
class 0

Test call, this compound: COc1ccc(C(=O)C=Cc2cc(Br)c(O)c(OC)c2)cc1F
class 1

Test call, this compound: Cc1ccc(Nc2nc(Nc3cccc(F)c3)nc3nccnc23)c(C)c1
class 0

Test call, this compound: CC(=O)NCCc1ccc(O)c(O)c1
class 1

Test call, this compound: O=C1/C(=C/c2cccc(Cl)c2)Oc2c1ccc(O)c2CN1CCN(CCO)CC1
class 1

Test call, this compound: COC(=O)C(C)Sc1nc2sc3c(c2c(=O)n1C)CCC3 (configuration not stated)
class 0

Test call, this compound: Cc1[nH]c(/C=C2\C(=O)Nc3ccccc32)c(C)c1CCC(=O)O
class 1

Test call, this compound: C[C@H]1O[C@H](O[C@@H]2[C@@H](O[C@H]3CC[C@@]4(C)C(CC[C@]5(C)C4CC=C4[C@@H]6CC(C)(C)CC[C@]6(C(=O)O)CC[C@]45C)[C@]3(C)CO)OC[C@@H](O)[C@H]2O)[C@@H](O)[C@H](O)[C@@H]1O (some centres not stated)
class 1

Test call, this compound: CCCCC(CC)CN=C(N)NC(N)=NCCCCCCN=C(N)NC(N)=NCC(CC)CCCC (configuration not stated)
class 0

Test call, this compound: CNC(=O)NC(=O)CCN1CC(c2ccccc2Cl)c2c([nH]c3ccccc23)C1C (configuration not stated)
class 0

Test call, this compound: CCN(CC)Cc1c(O)cc(C)c2c1O/C(=C\c1cc3ccccc3o1)C2=O
class 1

Test call, this compound: CCOc1cc2c(cc1C=C(C#N)C#N)OC(C)C2 (configuration not stated)
class 1

Test call, this compound: O=C1c2ccccc2C(=O)C1c1ccnc2ccccc12
class 1

Test call, this compound: N#C/C(=C/c1ccc(N2CCCCCC2)o1)c1ccc(F)cc1
class 1

Test call, this compound: O=c1[nH]c(CCl)nc2sc3c(c12)CCN(Cc1ccccc1)C3
class 0

Test call, this compound: COc1cc(/C=C(\C#N)C(=O)c2ccc(O)c(O)c2)cc(I)c1O
class 1

Test call, this compound: CCN1CCc2c(sc(NC(=O)C3=COCCO3)c2-c2nc3ccccc3s2)C1
class 1

Test call, this compound: C=CCC1=CC(=Cc2c(N)n3nc(Cc4cccs4)sc3nc2=O)C=C(OC)C1=O
class 1

Test call, this compound: CSc1ccc(C2CC(c3cccs3)=Nc3ncnn32)cc1 (configuration not stated)
class 1

Test call, this compound: COc1ccc(/C=C2\Oc3c(ccc4c3CN(CC3CCCO3)CO4)C2=O)cc1OC (configuration not stated)
class 1

Test call, this compound: COc1ccc(OC)c(CCNc2nc3cnc(-c4ccc(Cl)cc4)cc3n2C)c1
class 0

Test call, this compound: CCNC(=O)[C@H]1O[C@@H](n2cnc3c(N)ncnc32)C(O)[C@H]1O (some centres not stated)
class 1

Test call, this compound: CC1=NCCc2c1[nH]c1cc(O)ccc21
class 1

Test call, this compound: CSc1nc(N)c2ncn([C@@H]3O[C@H](COP(=O)(O)OP(=O)(O)OP(=O)(O)O)[C@H](O)C3O)c2n1 (some centres not stated)
class 1

Test call, this compound: COc1ccc(/C=C2\Oc3c(ccc4c3CN(Cc3ccncc3)CO4)C2=O)cc1OC
class 1

Test call, this compound: COc1cc(C=C(C#N)S(=O)(=O)c2cc(Br)ccc2Br)ccc1O
class 1

Test call, this compound: CC(C)c1nc(NC(=O)c2[nH]ncc2Br)n(C)n1
class 1

Test call, this compound: CN1C(=CC=C2C(=O)CC(C)(C)CC2=O)C(C)(C)c2ccccc21
class 1

Test call, this compound: CCC(CO)[n+]1c(C)cc(C=C2Sc3ccccc3N2Cc2ccccc2)cc1C (configuration not stated)
class 0

Test call, this compound: N#CC1C(=N)Oc2cc(O)ccc2C1c1ccc(Cl)cc1Cl (configuration not stated)
class 1

Test call, this compound: N#CC1C(=N)SC(=N)C(C#N)C1c1cccc(F)c1 (configuration not stated)
class 1

Test call, this compound: N#C/C(=C\c1ccc(O)c(O)c1)C(=O)NCc1ccccc1
class 0

Test call, this compound: COc1cc(/C=C2\C(=N)N3N=CSC3=NC2=O)cc(Br)c1OC(=O)c1ccco1
class 1

Test call, this compound: COc1ccc(-n2ccnc2-c2ccc(C#CC(C)(C)O)cc2)cn1
class 0

Test call, this compound: COc1cc(C=C2SC(=S)NC2=O)cc(Br)c1O
class 0

Test call, this compound: CCN1C(=Cc2cc(C)[n+](C3CCCCC3)c(C)c2)Sc2ccccc21
class 0

Test call, this compound: COc1ccc(OC)c(CCNc2nc3cnc(-c4ccc5c(c4)OCO5)cc3n2C)c1
class 0

Test call, this compound: Cn1c(C(C#N)=Cc2c(F)c(F)c(F)c(F)c2F)nc2ccccc21
class 1
